Recorded IC50 for compounds tested on Mast/stem cell growth factor receptor Kit (Homo sapiens, UniProt P10721), drawn from a number of studies.
MEASURED PARAMETER: IC50

1. CCOc1ccc(Nc2ccc(C(=O)c3c[nH]c4ncc(C)cc34)c(F)n2)cn1; < 1 µM
2. Cn1cc(-c2cnc3[nH]cc(C(=O)c4c(F)ccc(NS(=O)(=O)c5cccc(F)c5)c4F)c3c2)cn1; ≤ 10 µM
3. COC(=O)c1cnc2[nH]cc(Cc3cc(OC)c(OCc4nc5ccccc5[nH]4)cc3F)c2c1; ≤ 10 µM
4. COCCOc1ccc(F)c(C(=O)c2c[nH]c3ncc(-c4cccc(NS(C)(=O)=O)c4)cc23)c1F; ≤ 10 µM
5. CCOc1ccc(Nc2ccc(C(=O)c3c[nH]c4ncnc(C5CC5)c34)c(F)n2)cn1; < 0.1 µM
6. Cc1cc(C(=O)c2c[nH]c3ncc(-c4cccc(C(N)=O)c4)cc23)nn1C; ≤ 10 µM
7. CCCS(=O)(=O)Nc1ccc(F)c(C(=O)c2c[nH]c3ncc(-c4c(C)nn(C)c4C)cc23)c1F; ≤ 10 µM
8. CNc1ncc2c(n1)N1CCN=C1C(Oc1ccc(NC(=O)NC3CC3)cc1)=C2; > 10 µM

----------
Below are IC50 measurements against Mast/stem cell growth factor receptor Kit (Homo sapiens, UniProt P10721) drawn from the literature.
MEASURED PARAMETER: IC50

1. Cn1cc(-c2cnc3[nH]cc(C(=O)c4cc(NS(=O)(=O)c5ccc(F)cc5)ccc4F)c3c2)cn1; ≤ 10 µM
2. CCN1CCC(Nc2ccc3c(c2)/C(=C(\c2ccc(C(F)(F)F)c(F)c2)c2nc(C)c[nH]2)C(=O)N3)CC1; 0.05 to 0.5 µM
3. O=C(c1c(F)ccc(OCc2ccccc2)c1F)c1c[nH]c2ncc(-c3cccnc3)cc12; ≤ 10 µM
4. CCc1ccc(Nc2ccc(C(=O)c3c[nH]c4ncnc(NCCOC)c34)c(F)n2)cn1; < 0.01 µM
5. Fc1nc(NCc2ccc(N3CCCC3)cn2)ccc1Cc1c[nH]c2ncncc12; ≤ 10 µM
6. Oc1ccc(F)c(Cc2c[nH]c3ncc(-c4cccnc4)cc23)c1F; ≤ 10 µM
7. CC(C)(C)OC(=O)N1CCCC(NC(=O)c2nc(-c3ccc(CNC(=O)Nc4ccc(Cl)c(C(F)(F)F)c4)cc3)cnc2N)C1 (centres unmarked); 0.5 to 5 µM
8. CC(C)(C)c1ccc(S(=O)(=O)Nc2ccc(F)c(C(=O)c3c[nH]c4ncc(Cl)cc34)c2F)cc1; ≤ 10 µM

----------
The compounds below each have a reported pIC50 tested on Mast/stem cell growth factor receptor Kit (Homo sapiens, UniProt P10721); the values come from various publications.
pIC50: −log10 of the molar value.
MEASURED PARAMETER: pIC50

1. O=C(c1c(Cl)cccc1Cl)c1c[nH]c2ncccc12; ≥ 5.00
2. CCCCS(=O)(=O)Nc1cccc(C(=O)c2c[nH]c3ncc(-c4cnn(C)c4)cc23)c1; ≥ 5.00
3. COc1cccc(Cc2c[nH]c3ncc(-c4cccs4)cc23)c1; ≥ 5.00
4. Fc1ccc(-c2c(CSCc3ccco3)[nH]c3ncccc23)cc1; ≥ 5.00
5. CS(=O)(=O)Nc1ccc(F)c(C(=O)c2c[nH]c3nccc(Cl)c23)c1F; ≥ 5.00
6. O=S(=O)(NCc1c[nH]c2ncccc12)c1ccc(N2CCOCC2)nc1; ≥ 5.00
7. Cc1c(Oc2ccnc(-c3cnn(C)c3)c2)ccc(NC(=O)Nc2cc(C(C)C)nn2-c2cccc(C#N)c2)c1F; > 7.00
8. CC1CN(c2cncnc2)Cc2cc(C(=O)Nc3cc(CN4CCN(C)CC4)c(Cl)c(C(F)(F)F)c3)ccc21 (centres unmarked); < 5.00
9. O=C(c1c(F)ccc(OC(F)F)c1F)c1c[nH]c2ncc(-c3cccnc3)cc12; ≥ 5.00
10. CCCS(=O)(=O)Nc1ccc(F)c(Cc2c[nH]c3ncc(Br)cc23)c1F; ≥ 5.00
11. COc1cccc(N(C)c2c[nH]c3ncccc23)c1; ≥ 5.00
12. CCCS(=O)(=O)Nc1ccc(F)c(Cc2c[nH]c3ncc(-c4cccnc4)cc23)c1F; ≥ 5.00
13. O=C(c1c(F)ccc(NS(=O)(=O)c2ccccc2)c1F)c1c[nH]c2ncc(Br)cc12; ≥ 5.00
14. CCN1CCC(Nc2ccc3c(c2)/C(=C(/c2ncc[nH]2)c2cccc(F)c2F)C(=O)N3)CC1; > 7.30
15. Cc1cnc2[nH]cc(C(=O)c3c(F)ccc(NS(=O)(=O)c4cccc(F)c4)c3F)c2c1; ≥ 5.00
16. O=C(NCc1ccc(-c2cccnc2Cl)cc1)Nc1ccc(Cl)c(C(F)(F)F)c1; 5.30 to 6.30
17. c1cc(Cc2c[nH]c3ncc(-c4ccsc4)cc23)cc(OCCOC2CCCCO2)c1 (centres unmarked); ≥ 5.00
